test system: G. duodenalis BRIS/91/HEPU/1279; test: Primary Giardia screen at 10 µM (live-cell imaging, automated counting); assay type: cell-based, Giardia duodenalis; conditions: 48 h, first singlicate assay
Note to self: values exactly at 9% are Y. So % Inhibition n=1 48h at or above 9% is Y, below is N.

Consider the following illustrative entries.
O=C(NCCCN1CCN(c2ccccc2)CC1)c1noc2c1CCCCC2
Y
Cn1c(=O)[nH]c(=O)c2c1nc(N1CCNCC1)n2Cc1ccc(Br)cc1
N

Kindly determine if % Inhibition n=1 48h recorded for CC(C)S(=O)(=O)N1CCC(N(C)C2CCOCC2)CC1 is above or exactly 9%. N

Is reported % Inhibition n=1 48h greater than or equal to 9% here: CCOC(=O)CNC(=O)N1Cc2c(C)nn(-c3ccccc3)c2-n2cccc2C1c1cccc(F)c1 (stereo not drawn) N
